# System: SRPK1
# RUN_CONDITIONS: concentration: 1 μM, replicates: in singlicate; n = 1;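 further: KINOMEscan kinase panel screen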
In this section we review reported %Inh values for a set of compounds.
Write it as a number; the unit % goes unstated.

Observe how each entry below is paired with its result.
{"COMPOUND": "FC(F)(F)c1cc(Nc2nccc(-c3c(-c4ccc(Cl)cc4)nn4ncccc34)n2)ccc1Cl [GW829351]", "%Inh (%)": 0}
{"COMPOUND": "CCc1nc(-c2cccc(N(C)S(=O)(=O)c3ccccc3)c2)c(-c2ccnc(Nc3ccc(N4CCN(C(C)=O)CC4)nc3)n2)s1 [GSK1645895]", "%Inh (%)": 19}

// moving on: another record for %Inh
Jot down %Inh (SRPK1) of "CN1c2ccc(-c3ccc(C(=O)NCCO)cc3)cc2-c2[nH]ncc2S1(=O)=O" . 12

----------
# Test system: ACVR2B
# RUN_CONDITIONS: concentration: 1 μM, replicates: in singlicate; n = 1
The entries below come with measured %Inh values attached.
The figure you give is taken to be in %; do not add the unit.

Example results:
{"GIVEN_SMILES": "O=C(Nc1n[nH]c2nc(-c3ccco3)c(Br)cc12)c1ccc(CN2CCCC2)cc1.O=C(O)[C@H](O)[C@@H](O)C(=O)O", "%Inh (%)": 0}
{"GIVEN_SMILES": "CCC(CC)(CC)n1cnc2c(N)ncnc21", "%Inh (%)": 0}
{"GIVEN_SMILES": "FC(F)(F)c1ccc(-c2nn3ncccc3c2-c2ccnc(Nc3cccc(C(F)(F)F)c3)n2)cc1", "%Inh (%)": 19}

Quickly give me recorded %Inh for "CN1c2ccc(-c3ccc(C(=O)NCCO)cc3)cc2-c2[nH]ncc2S1(=O)=O" 2

Identify %Inh associated with the molecule "Cn1ccc2ncnc(Oc3ccc(NC(=O)Nc4cccnc4)c(Cl)c3)c21" 0

Give a short answer stating reported %Inh for "Cl.Cl.c1ccc(-c2cc3ccncc3cc2OC2CCNCC2)cc1" . 0

Determine from records and report %Inh for "COC(=O)c1c(-c2ccccc2)c2cc(Cl)ccc2c(=O)n1Cc1ccc(S(C)(=O)=O)cc1" 0

For the molecule "CSc1ccc(NC2=C(c3ccccc3Cl)C(=O)NC2=O)cc1" , report %Inh. 0

----------
# System: ABL1-nonphosphorylated
# RUN_CONDITIONS: concentration: 1 μM, replicates: in singlicate; n = 1
Quick reference for %Inh among some molecules
Respond with the bare value in %.

{"MOLECULE": "CN1CCC(n2cnc(-c3ccc(F)cc3)c2-c2ccnc(NC3CCNCC3)n2)CC1 [SB-229482]", "MEASURE_UNIT": "%", "RECORDED_MEASUREMENT": 44}
{"MOLECULE": "Cl.c1ccc(Cn2ccc3cc(Nc4ncnc5ccccc45)ccc32)cc1 [GW275568]", "MEASURE_UNIT": "%", "RECORDED_MEASUREMENT": 0}
{"MOLECULE": "Nc1nc(-c2cccnc2)c(-c2ccnc3ccccc23)s1 [GW684083]", "MEASURE_UNIT": "%", "RECORDED_MEASUREMENT": 0}
{"MOLECULE": "Nc1nccc2scc(-c3ccc4c(c3)CCN4C(=O)Cc3cc(F)ccc3F)c12 [GSK2587663]", "MEASURE_UNIT": "%", "RECORDED_MEASUREMENT": 0}
{"MOLECULE": "Nc1nc(-c2ccccn2)c(-c2ccnc3ccccc23)s1 [GW548057]", "MEASURE_UNIT": "%", "RECORDED_MEASUREMENT": 28}
{"MOLECULE": "Fc1ccc(-c2ncn(CCCNCc3ccccc3)c2-c2ccncc2)cc1", "MEASURE_UNIT": "%", "RECORDED_MEASUREMENT": 25}
{"MOLECULE": "OCCOCCn1ccc2ncnc(Nc3ccc(Oc4cccc(Cl)c4)c(Cl)c3)c21", "MEASURE_UNIT": "%", "RECORDED_MEASUREMENT": 24}
{"MOLECULE": "COC(=O)c1c(-c2ccccc2)c2cc(Cl)ccc2c(=O)n1Cc1ccc(S(C)(=O)=O)cc1", "MEASURE_UNIT": "%", "RECORDED_MEASUREMENT": 40}

Proceed to the following item.
Tell me %Inh reported for FC(F)(F)c1ccc(-c2cc(-c3c[nH]nc3-c3ccccn3)ccn2)cc1 [GW599550] 17
